Test system: MDA-MB-231 complex spheroids, growth inhibition
Experiment: Anticancer human tumor MDA-MB-231 cell line growth inhibition [Asc];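 note: spheroids exposed to compounds for 7 days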
Conditions: curve of first compound; second compound 0.1 µM
PROPERTY MEASURED: IC50

Solved entries (count: 5):
[[record]]
molecule = "O=C(c1cc(Cc2n[nH]c(=O)c3ccccc23)ccc1F)N1CCN(C(=O)C2CC2)CC1 + Cc1c(S(C)(=O)=O)c(-c2cc(F)cc(N3CCN(c4ccc(NS(=O)(=O)c5ccc(NC(CCN6CCC(C(=O)OCCCP(=O)(O)O)CC6)CSc6ccccc6)c(S(=O)(=O)C(F)(F)F)c5)cc4)CC3)c2)c(-c2ccc(Cl)cc2)n1C(C)C"
observed_measurement = "> 10000 nM"

[[record]]
molecule = "CCN1CCN(Cc2ccc(Nc3ncc(F)c(-c4cc(F)c5nc(C)n(C(C)C)c5c4)n3)nc2)CC1 + CNC(C)C(=O)NC1CN(S(=O)(=O)c2cccc(S(=O)(=O)N3CCC4CCC(C(=O)NC(c5ccccc5)c5ccccc5)N4C(=O)C(NC(=O)C(C)NC)C3)c2)CCC2CCC(C(=O)NC(c3ccccc3)c3ccccc3)N2C1=O"
observed_measurement = "< 3.16 nM"

[[record]]
molecule = "COc1c(OCCCN2CCOCC2)ccc2c3n(c(=NC(=O)c4cnc(N)nc4)nc12)CCN3 + Cc1c(S(C)(=O)=O)c(-c2cc(F)cc(N3CCN(c4ccc(NS(=O)(=O)c5ccc(NC(CCN6CCC(C(=O)OCCCP(=O)(O)O)CC6)CSc6ccccc6)c(S(=O)(=O)C(F)(F)F)c5)cc4)CC3)c2)c(-c2ccc(Cl)cc2)n1C(C)C"
observed_measurement = "95.4 nM"

[[record]]
molecule = "NC(=O)C(=Cn1cnc(-c2cc(C(F)(F)F)cc(C(F)(F)F)c2)n1)c1cncnc1 + Cc1c(S(C)(=O)=O)c(-c2cc(F)cc(N3CCN(c4ccc(NS(=O)(=O)c5ccc(NC(CCN6CCC(C(=O)OCCCP(=O)(O)O)CC6)CSc6ccccc6)c(S(=O)(=O)C(F)(F)F)c5)cc4)CC3)c2)c(-c2ccc(Cl)cc2)n1C(C)C"
observed_measurement = "63.4 nM"

[[record]]
molecule = "Cn1ncnc1[C@H]1c2n[nH]c(=O)c3cc(F)cc(c23)N[C@@H]1c1ccc(F)cc1 + CNC(C)C(=O)NC1CN(S(=O)(=O)c2cccc(S(=O)(=O)N3CCC4CCC(C(=O)NC(c5ccccc5)c5ccccc5)N4C(=O)C(NC(=O)C(C)NC)C3)c2)CCC2CCC(C(=O)NC(c3ccccc3)c3ccccc3)N2C1=O"
observed_measurement = "< 0.316 nM"


Let us move to another entry and its IC50.
stdin: Give IC50 for CCN1C(C(=O)NC23CCC(C(=O)O)(CC2)CC3)C(c2cccc(Cl)c2F)C2(C(=O)Nc3cc(Cl)ccc32)C12CCCCC2 (stereo unspecified) + Cc1c(S(C)(=O)=O)c(-c2cc(F)cc(N3CCN(c4ccc(NS(=O)(=O)c5ccc(NC(CCN6CCC(C(=O)OCCCP(=O)(O)O)CC6)CSc6ccccc6)c(S(=O)(=O)C(F)(F)F)c5)cc4)CC3)c2)c(-c2ccc(Cl)cc2)n1C(C)C
stdout: > 3000 nM
